// provenance: ChEMBL document CHEMBL3885861

Measured Lym values are reported for all entries that follow.
Organism: Rattus norvegicus
experiment: Open TG-GATES - Regimen: Single
Type: toxicity, organism-based, Sprague-Dawley
Parameters: regimen Single, gender Male, age 6 weeks
measurement.parameters: in vivo, po, 1000 mg/kg, 24 h, tissue Blood, route gavage, dose level High
Your answer should be a plain number; it is taken to be in %.

Q: What Lym value was documented for this compound, CNC(=C[N+](=O)[O-])NCCSCc1ccc(CN(C)C)o1 [RANITIDINE] ?
Result: 79

Q: Return reported Lym; argument: CN/C(=N/CCSCc1nc[nH]c1C)NC#N [CIMETIDINE]
Result: 80.6

Q: Look up Lym: O=C(OC[C@H]1O[C@@H](OC(=O)c2cc(O)c(O)c(OC(=O)c3cc(O)c(O)c(O)c3)c2)[C@H](OC(=O)c2cc(O)c(O)c(OC(=O)c3cc(O)c(O)c(O)c3)c2)[C@@H](OC(=O)c2cc(O)c(O)c(OC(=O)c3cc(O)c(O)c(O)c3)c2)[C@@H]1OC(=O)c1cc(O)c(O)c(OC(=O)c2cc(O)c(O)c(O)c2)c1)c1cc(O)c(O)c(OC(=O)c2cc(O)c(O)c(O)c2)c1 [TANNIC ACID]
Result: 75.2

Q: Any idea what Lym was measured for COC(=O)C1=C(C)NC(C)=C(C(=O)OC)C1c1ccccc1[N+](=O)[O-] [NIFEDIPINE] ?
Result: 72.8

Q: Need Lym, item Cc1nnc2n1-c1ccc(Cl)cc1C(c1ccccc1Cl)=NC2 [TRIAZOLAM]
Result: 75.4
